// AC50 lookup, one value per entry
# Tested Target: human PAH with the R408W mutation (Homo sapiens, UniProt P00439, R408W)
# Construct: expressed in transfected cells
# Sequence (P00439 1-452 R408W): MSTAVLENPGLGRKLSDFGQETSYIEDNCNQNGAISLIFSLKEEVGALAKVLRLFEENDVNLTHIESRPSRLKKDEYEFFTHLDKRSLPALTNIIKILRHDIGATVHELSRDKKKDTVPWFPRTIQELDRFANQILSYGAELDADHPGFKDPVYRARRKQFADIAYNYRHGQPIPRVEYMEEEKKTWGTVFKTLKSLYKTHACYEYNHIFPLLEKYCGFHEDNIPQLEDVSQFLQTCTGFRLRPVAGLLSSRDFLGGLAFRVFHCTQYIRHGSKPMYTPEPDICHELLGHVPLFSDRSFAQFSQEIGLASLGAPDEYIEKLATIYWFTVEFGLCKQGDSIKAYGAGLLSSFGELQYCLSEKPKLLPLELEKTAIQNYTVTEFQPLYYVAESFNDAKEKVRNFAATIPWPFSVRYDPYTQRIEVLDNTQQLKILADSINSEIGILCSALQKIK
# Test Summary: Cell Based Phenylalanine Flux Assay
# Setup Conditions: A375 cells expressing human R408W PAH; 24 hrs compound incubation; 13C-Tyrosine by LC-MS; average where tested multiple times; read-out: AC50
Result Type: AC50

>  <Compound>
O=C(Cc1nc2ccccc2s1)N1CCc2[nH]cnc2[C@H]1c1nc2ccccc2[nH]1 [Example 905]

>  <Result Type>
AC50

>  <Reported Value>
1 to 5 µM

$$$$
>  <Compound>
O=C(c1cnn2ccccc12)N1CCc2[nH]cnc2[C@@H]1c1nc2ccc(Br)cc2[nH]1 [Example 941]

>  <Result Type>
AC50

>  <Reported Value>
1 to 5 µM

$$$$
>  <Compound>
O=C(c1cnn2ccccc12)N1CCc2[nH]cnc2[C@H]1c1nc2ccc(Br)cc2[nH]1 [Example 940]

>  <Result Type>
AC50

>  <Reported Value>
0.5 to 1 µM

$$$$
>  <Compound>
O=C(c1cnn2ccc(Br)cc12)N1CCc2[nH]cnc2[C@H]1c1nc2c(F)cccc2s1 [Example 1171]

>  <Result Type>
AC50

>  <Reported Value>
< 0.5 µM

$$$$
>  <Compound>
O=C(CC1CCC1)N1CCc2[nH]cnc2[C@H]1c1nc2ccccc2s1 [Example 1307]

>  <Result Type>
AC50

>  <Reported Value>
< 0.5 µM

$$$$
>  <Compound>
O=C(c1nnc(-c2cnn(C3CCC3)c2)o1)N1CCc2[nH]cnc2[C@H]1c1nc2ccccc2s1 [Example 1828]

>  <Result Type>
AC50

>  <Reported Value>
< 0.5 µM

$$$$
>  <Compound>
O=C(c1oc(C2(O)CC2)nc1C(F)(F)F)N1CCc2[nH]cnc2[C@H]1c1nc2c(F)cccc2s1 [Example 2185]

>  <Result Type>
AC50

>  <Reported Value>
< 0.5 µM

$$$$
>  <Compound>
O=C(CC1CC1)N1CCc2[nH]cnc2[C@@H]1c1nc2ccccc2s1 [Example 1072]

>  <Result Type>
AC50

>  <Reported Value>
1 to 5 µM

$$$$
>  <Compound>
Cc1nc(CN(C)C)oc1C(=O)N1CCc2[nH]cnc2[C@H]1c1nc2ccccc2s1 [Example 1693]

>  <Result Type>
AC50

>  <Reported Value>
0.5 to 1 µM

$$$$
>  <Compound>
COCc1nc(Br)c(C(=O)N2CCc3[nH]cnc3[C@H]2c2nc3c(F)cccc3s2)o1 [Example 1776]

>  <Result Type>
AC50

>  <Reported Value>
< 0.5 µM

$$$$
>  <Compound>
O=C(c1cncs1)N1CCc2[nH]cnc2[C@H]1c1nc2cc(F)ccc2s1 [Example 1193]

>  <Result Type>
AC50

>  <Reported Value>
1 to 5 µM

$$$$
>  <Compound>
CC1(c2nc(C(F)F)c(C(=O)N3CCc4[nH]cnc4[C@H]3c3nc4ccccc4s3)o2)CC1 [Example 1851]

>  <Result Type>
AC50

>  <Reported Value>
< 0.5 µM

$$$$
>  <Compound>
O=C(c1cnc(-c2ccccc2)s1)N1CCc2[nH]cnc2[C@H]1c1nc2ccccc2s1 [Example 1203]

>  <Result Type>
AC50

>  <Reported Value>
0.5 to 1 µM

$$$$
>  <Compound>
Cc1cccc2sc([C@@H]3c4nc[nH]c4CCN3C(=O)c3ocnc3C(F)(F)F)nc12 [Example 2009]

>  <Result Type>
AC50

>  <Reported Value>
< 0.5 µM

$$$$
>  <Compound>
Cc1cnc(C(=O)N2CCc3[nH]cnc3[C@@H]2c2nc3ccccc3s2)s1 [Example 1056]

>  <Result Type>
AC50

>  <Reported Value>
> 5 µM

$$$$
>  <Compound>
O=C(c1ocnc1-c1ccccc1)N1CCc2[nH]cnc2[C@@H]1c1nc2ccccc2s1 [Example 1441]

>  <Result Type>
AC50

>  <Reported Value>
> 5 µM

$$$$

###

# Tested Target: human PAH with the R408W mutation (Homo sapiens, UniProt P00439, R408W)
# Construct: expressed in transfected cells
# Test Summary: Cell Based Phenylalanine Flux Assay
# Setup Conditions: A375 cells expressing human R408W PAH; 24 hrs compound incubation; 13C-Tyrosine by LC-MS; average where tested multiple times; read-out: AC50
// AC50 lookup, one value per entry

>  <Compound>
O=C(c1oc(-c2ccccn2)nc1C(F)F)N1CCc2[nH]cnc2[C@@H]1c1nc2c(F)cccc2s1 [Example 1797]

>  <AC50>
< 500 nM

$$$$
>  <Compound>
O=C(c1nncs1)N1CCc2[nH]cnc2[C@H]1c1nc2cccc(F)c2s1 [Example 1266]

>  <AC50>
< 500 nM

$$$$
>  <Compound>
O=C(c1cnn2cc(CN3CCOCC3)ccc12)N1CCc2[nH]cnc2[C@@H]1c1nc2ccccc2s1 [Example 2156]

>  <AC50>
> 5000 nM

$$$$
>  <Compound>
O=C(c1cnc(-c2ccnc(C(F)(F)F)c2)s1)N1CCc2[nH]cnc2[C@@H]1c1nc2ccccc2s1 [Example 1404]

>  <AC50>
1000 to 5000 nM

$$$$
>  <Compound>
CC(C)(O)c1nc(C(F)(F)F)c(C(=O)N2CC3(CC3)c3[nH]cnc3[C@H]2c2nc3ccccc3s2)o1 [Example 1679]

>  <AC50>
500 to 1000 nM

$$$$
>  <Compound>
O=C(c1cc(C(F)(F)F)n[nH]1)N1CCc2[nH]cnc2[C@H]1c1nc2c(F)cccc2s1 [Example 1816]

>  <AC50>
1000 to 5000 nM

$$$$
>  <Compound>
CC(C)(O)c1nc(Br)c(C(=O)N2CCc3[nH]cnc3[C@H]2c2nc3ccccc3s2)s1 [Example 2107]

>  <AC50>
< 500 nM

$$$$

###

// AC50 lookup, one value per entry
# Tested Target: human PAH with the R408W mutation (Homo sapiens, UniProt P00439, R408W)
# Construct: expressed in transfected cells
# Sequence (P00439 1-452 R408W): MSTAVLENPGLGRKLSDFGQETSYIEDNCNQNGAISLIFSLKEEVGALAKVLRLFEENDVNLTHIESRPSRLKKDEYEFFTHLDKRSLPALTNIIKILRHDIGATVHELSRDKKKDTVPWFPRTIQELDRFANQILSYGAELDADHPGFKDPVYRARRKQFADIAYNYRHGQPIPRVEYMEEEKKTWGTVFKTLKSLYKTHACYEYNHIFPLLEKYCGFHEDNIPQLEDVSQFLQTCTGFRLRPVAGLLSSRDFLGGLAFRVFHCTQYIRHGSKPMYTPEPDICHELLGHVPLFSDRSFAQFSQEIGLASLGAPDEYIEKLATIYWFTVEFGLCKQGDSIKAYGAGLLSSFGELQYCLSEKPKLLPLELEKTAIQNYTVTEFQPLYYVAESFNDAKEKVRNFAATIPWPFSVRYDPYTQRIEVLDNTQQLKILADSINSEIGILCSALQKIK
# Test Summary: Cell Based Phenylalanine Flux Assay
# Setup Conditions: A375 cells expressing human R408W PAH; 24 hrs with compound; 13C-Tyrosine by LC-MS; average where tested multiple times; read-out: AC50

>  <Compound>
Cc1ccc2c(C(=O)N3CCc4[nH]cnc4C3c3nc4ccc(F)cc4s3)cnn2c1 (centres unmarked)

>  <AC50>
1 to 5 µM

$$$$
>  <Compound>
Nc1nnc(CCC(=O)N2CCc3[nH]cnc3C2c2nc3ccccc3s2)s1 (centres unmarked)

>  <AC50>
> 5 µM

$$$$
>  <Compound>
Cc1nc(C(C)(C)O)oc1C(=O)N1CCCc2[nH]cnc2C1c1nc2ccccc2s1 (centres unmarked)

>  <AC50>
> 5 µM

$$$$
>  <Compound>
CC(C)(O)Cn1ncc(C(=O)N2CCc3[nH]cnc3C2c2nc3c(F)cccc3s2)c1C(F)F (centres unmarked)

>  <AC50>
1 to 5 µM

$$$$
>  <Compound>
Clc1ccc2nc(C3c4nc[nH]c4CCN3Cc3nccs3)[nH]c2c1 (centres unmarked)

>  <AC50>
> 5 µM

$$$$
>  <Compound>
O=C(c1nc(Cl)cs1)N1CCc2[nH]cnc2C1c1nc2c(F)cccc2s1 (centres unmarked)

>  <AC50>
> 5 µM

$$$$
>  <Compound>
O=C(c1ncco1)N1CCc2[nH]cnc2C1c1nc2cc(F)ccc2s1 (centres unmarked)

>  <AC50>
1 to 5 µM

$$$$
>  <Compound>
CC(C)(O)c1cc(C(=O)N2CCc3[nH]cnc3C2c2nc3c(F)cccc3s2)[nH]n1 (centres unmarked)

>  <AC50>
1 to 5 µM

$$$$
>  <Compound>
COc1ccn2ncc(C(=O)N3CCc4[nH]cnc4C3c3nc4ccc(Cl)cc4[nH]3)c2c1 (centres unmarked)

>  <AC50>
> 5 µM

$$$$
>  <Compound>
Cn1cc(-c2cnc(CC(=O)N3CCc4[nH]cnc4C3c3nc4ccccc4s3)s2)cn1 (centres unmarked)

>  <AC50>
> 5 µM

$$$$
>  <Compound>
Cn1ccc(C(=O)N2CCc3[nH]cnc3C2c2nc3ccccc3s2)n1 (centres unmarked)

>  <AC50>
1 to 5 µM

$$$$
>  <Compound>
O=C(c1nccs1)N1CCc2nc[nH]c2C1c1nc2ccc(F)cc2s1 (centres unmarked)

>  <AC50>
1 to 5 µM

$$$$
>  <Compound>
Cc1nnc(CCC(=O)N2CCc3[nH]cnc3C2c2nc3ccc(Cl)cc3[nH]2)s1 (centres unmarked)

>  <AC50>
> 5 µM

$$$$
>  <Compound>
Cc1ncsc1C(=O)N1CCc2[nH]cnc2C1c1nc2ccccc2s1 (centres unmarked)

>  <AC50>
> 5 µM

$$$$
>  <Compound>
CC(C)(O)c1nsc(C(=O)N2CCc3[nH]cnc3C2c2nc3c(F)cccc3s2)n1 (centres unmarked)

>  <AC50>
> 5 µM

$$$$
>  <Compound>
O=C(c1nnc(C2CC(F)(F)C2)o1)N1CCc2[nH]cnc2C1c1nc2ccccc2s1 (centres unmarked)

>  <AC50>
1 to 5 µM

$$$$
>  <Compound>
Cc1nnc(CC(=O)N2CCc3[nH]cnc3C2c2nc3ccc(F)cc3s2)s1 (centres unmarked)

>  <AC50>
> 5 µM

$$$$
>  <Compound>
O=C(c1cnn2cc(Br)ccc12)N1CCc2[nH]cnc2C1c1nc2ccc(F)cc2s1 (centres unmarked)

>  <AC50>
1 to 5 µM

$$$$
>  <Compound>
O=C(c1nnc(CCNC2CC2)o1)N1CCc2[nH]cnc2C1c1nc2ccccc2s1 (centres unmarked)

>  <AC50>
1 to 5 µM

$$$$
>  <Compound>
CC1CN(C(=O)c2nnc(C(C)(C)O)o2)C(c2nc3ccccc3s2)c2nc[nH]c21 (centres unmarked)

>  <AC50>
1 to 5 µM

$$$$
